molecular target: recombinant human MASP2 active protease (amino acids 297-686, C-terminal His Tag) (human, UniProt O00187 297-686); experiment: cell-based or functional assay
Sequence (O00187 other isoform, or with tags, fused parts or gaps limits assumed): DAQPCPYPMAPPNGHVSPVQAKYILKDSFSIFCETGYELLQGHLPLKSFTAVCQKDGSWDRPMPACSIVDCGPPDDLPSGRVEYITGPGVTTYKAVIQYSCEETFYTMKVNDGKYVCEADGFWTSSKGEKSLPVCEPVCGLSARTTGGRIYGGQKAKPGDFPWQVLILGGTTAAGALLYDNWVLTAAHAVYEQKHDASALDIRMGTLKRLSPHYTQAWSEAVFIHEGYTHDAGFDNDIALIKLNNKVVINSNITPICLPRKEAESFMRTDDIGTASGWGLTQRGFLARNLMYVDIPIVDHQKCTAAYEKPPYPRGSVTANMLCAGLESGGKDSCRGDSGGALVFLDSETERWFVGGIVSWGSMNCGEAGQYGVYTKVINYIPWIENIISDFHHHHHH
Bridge positions count the residues as written; N and C are the ends. Square brackets hold non-standard residues; d marks the D form. Ends that are not written are not given here. Pro(4-spirocPr) = O=C(O)[C@@H]1CC2(CC2)CN1; Oic = O=C(O)[C@@H]1C[C@@H]2CCCC[C@@H]2N1; tBuAla = CC(C)(C)C[C@H](N)C(=O)O; Pen = CC(C)(S)[C@H](N)C(=O)O; NMeC = CN[C@@H](CS)C(=O)O; Nva = CCC[C@H](N)C(=O)O
measureName: human MASP2 IC50 (nM)
Give bare numbers, in nM.

The following binders have reported results that may help.
binder="AICSRSLP[Oic]I[Pen]I-OH (disulfide 3-11; N-terminus assumed; SMILES CC[C@H](C)[C@H](NC(=O)[C@H]1NC(=O)[C@H]([C@@H](C)CC)NC(=O)[C@@H]2C[C@@H]3CCCC[C@@H]3N2C(=O)[C@@H]2CCCN2C(=O)[C@H](CC(C)C)NC(=O)[C@H](CO)NC(=O)[C@H](CCCNC(=N)N)NC(=O)[C@H](CO)NC(=O)[C@@H](NC(=O)[C@@H](NC(=O)[C@H](C)N)[C@@H](C)CC)CSSC1(C)C)C(=O)O) [AIC+SRSLP-(Oic)-I-(Pen)+I-OH]" measurename="human MASP2 IC50" measuredresult=360
binder="TICSRS[tBuAla]PPI[Pen]IPD-NH2 (disulfide 3-11; N-terminus assumed; SMILES CC[C@H](C)[C@H](NC(=O)[C@@H](N)[C@@H](C)O)C(=O)N[C@H]1CSSC(C)(C)[C@@H](C(=O)N[C@H](C(=O)N2CCC[C@H]2C(=O)N[C@@H](CC(=O)O)C(N)=O)[C@@H](C)CC)NC(=O)[C@H]([C@@H](C)CC)NC(=O)[C@@H]2CCCN2C(=O)[C@@H]2CCCN2C(=O)[C@H](CC(C)(C)C)NC(=O)[C@H](CO)NC(=O)[C@H](CCCNC(=N)N)NC(=O)[C@H](CO)NC1=O) [TIC+SRS-((tBu)A)-PPI-(Pen)+IPD-NH2]" measurename="human MASP2 IC50" measuredresult=74.5

Hey, can you go through the list below and give me human MASP2 IC50 for every item?
1. [Nva]ICSRS[tBuAla]PPI[NMeC]I-NH2 (disulfide 3-11; N-terminus assumed; SMILES CCC[C@H](N)C(=O)N[C@H](C(=O)N[C@H]1CSSC[C@@H](C(=O)N[C@H](C(N)=O)[C@@H](C)CC)N(C)C(=O)[C@H]([C@@H](C)CC)NC(=O)[C@@H]2CCCN2C(=O)[C@@H]2CCCN2C(=O)[C@H](CC(C)(C)C)NC(=O)[C@H](CO)NC(=O)[C@H](CCCNC(=N)N)NC(=O)[C@H](CO)NC1=O)[C@@H](C)CC) [(Nva)-IC+SRS-((tBu)A)-PPI-(((N-Me)C))+I-NH2]
2. AICSRSLP[Pro(4-spirocPr)]I[Pen]IPD-OH (disulfide 3-11; N-terminus assumed; SMILES CC[C@H](C)[C@H](NC(=O)[C@H](C)N)C(=O)N[C@H]1CSSC(C)(C)[C@@H](C(=O)N[C@H](C(=O)N2CCC[C@H]2C(=O)N[C@@H](CC(=O)O)C(=O)O)[C@@H](C)CC)NC(=O)[C@H]([C@@H](C)CC)NC(=O)[C@@H]2CC3(CC3)CN2C(=O)[C@@H]2CCCN2C(=O)[C@H](CC(C)C)NC(=O)[C@H](CO)NC(=O)[C@H](CCCNC(=N)N)NC(=O)[C@H](CO)NC1=O) [AIC+SRSLP-((6S)-5-Azaspiro[2.4]heptane-6-carboxylic acid)-I-(Pen)+IPD-OH]

## Output
1: 50; 2: 26

Cited source: patent US20210246166A1
